Measured GI50 values are reported for all entries that follow.
Tested on: UO-31
Experiment: NCI tumour cell line growth inhibition, 48 h
Active and inactive are the calls of the source. Cut-off read from the data, not from the text of the source: active = GI50 up to about 1.1 µM and inactive = higher.

| compound | GI50 |
| --- | --- |
| N#CCCN(c1ccc(/C=C2\N=C(Cc3ccccc3)OC2=O)cc1)S(=O)(=O)c1ccccc1 | > 100 µM (inactive) |
| CN1N=C(c2ccncc2)OC1c1ccc(C(F)(F)F)cc1 (stereo unspecified) | > 100 µM (inactive) |
| COc1ccc(OC)c2sc(N3C(=O)/C(=C/c4ccc(Cl)cc4)N=C3c3ccccc3)nc12 | > 100 µM (inactive) |
| O=C(/C=C/c1ccc(Cl)cc1)c1cccs1 | 18 µM (inactive) |
| Cn1c(=O)c2nc3sc4ccccc4c(=N)n3c2n(C)c1=O | > 100 µM (inactive) |
| Cn1c(=O)c2c(no[n+]2[O-])n(C)c1=O | 31 µM (inactive) |
| Nc1c(C(=O)c2ccccc2)nnc2ccccc12 | 24.7 µM (inactive) |
| CCOC(=O)c1c(-c2ccccc2)c(-c2ccccc2)cn1C | > 10 µM (inactive) |
| C1CC[C@H]2SSC3CCCC[C@H]3SSC2C1 (stereo partly specified) | > 100 µM (inactive) |
| CN(C(=O)c1ccc(Cl)s1)C(=S)N(C)C(=O)c1ccc(Cl)s1 | > 10 µM (inactive) |
| COc1ccc(/C=C/C(=N\NC(=O)c2ccccc2)c2sc(Nc3ccc([N+](=O)[O-])cc3)nc2C)cc1OC | 15.6 µM (inactive) |
